Give % Maximum Stimulation Compared to Oxotremorine-M for every item shown.
# tested.system: human m4 receptors (Homo sapiens)
# Construct: expressed in transfected cells; host or cells: CHO K1 cells
# Sequence (P08173 whole entry): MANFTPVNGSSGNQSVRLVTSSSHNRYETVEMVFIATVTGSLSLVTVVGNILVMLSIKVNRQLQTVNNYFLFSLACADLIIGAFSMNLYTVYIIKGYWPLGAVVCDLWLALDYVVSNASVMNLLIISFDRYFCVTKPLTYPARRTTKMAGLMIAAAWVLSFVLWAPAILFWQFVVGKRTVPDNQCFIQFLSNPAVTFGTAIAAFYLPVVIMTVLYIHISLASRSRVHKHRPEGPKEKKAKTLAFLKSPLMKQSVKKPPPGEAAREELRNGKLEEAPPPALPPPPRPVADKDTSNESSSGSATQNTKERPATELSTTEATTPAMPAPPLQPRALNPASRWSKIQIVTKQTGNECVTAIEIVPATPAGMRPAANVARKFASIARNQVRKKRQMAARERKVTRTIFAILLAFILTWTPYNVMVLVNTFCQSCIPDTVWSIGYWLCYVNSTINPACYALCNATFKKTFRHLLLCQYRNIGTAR
# protocol.summary: Stimulation of cyclic AMP production in pertussis toxin-treated CHO-m4 cells
# Type: cell-based
# measurement.parameters: forskolin present

Task item: Recorded % Maximum Stimulation Compared to Oxotremorine-M of "O=C(N[C@@H]1c2cc(N=CN3CCCC3)ccc2C[C@H]1O)c1c(Cl)cc(Cl)cc1Cl" , please.
Reply: <20%

Task item: Recorded % Maximum Stimulation Compared to Oxotremorine-M of "CN(C)C=Nc1ccc2c(c1)[C@@H](NS(=O)(=O)c1ccc(Cl)c(Cl)c1)[C@H](O)C2" , please.
Reply: 4%

Task item: Recorded % Maximum Stimulation Compared to Oxotremorine-M of Cc1cc(C)c(C(=O)NC2c3cc(N=CN4CCCC4)ccc3CC2O)c(C)c1 (centres unmarked) , please.
Reply: <20%

Task item: Recorded % Maximum Stimulation Compared to Oxotremorine-M of O=C(NC1c2cc(N=CN3CCCC3)ccc2CC1O)c1cccc(Cl)c1Cl (centres unmarked) , please.
Reply: 45%

Task item: Recorded % Maximum Stimulation Compared to Oxotremorine-M of O=C(NC1c2cc(N=CN3CCCC3)ccc2CC1O)c1cc(F)c(F)c(F)c1F (centres unmarked) , please.
Reply: 96%

Task item: Recorded % Maximum Stimulation Compared to Oxotremorine-M of CCCc1ccc(C(=O)NC2c3cc(N=CN4CCCC4)ccc3CC2O)cc1 (centres unmarked) , please.
Reply: <20%

Task item: Recorded % Maximum Stimulation Compared to Oxotremorine-M of O=C(NC1c2cc(N=CN3CCCC3)ccc2CC1O)c1cc(F)cc(F)c1 (centres unmarked) , please.
Reply: <20%

Task item: Recorded % Maximum Stimulation Compared to Oxotremorine-M of "CN(C)C=Nc1ccc2c(c1)[C@@H](NC(=O)c1cccnc1Cl)[C@H](O)C2" , please.
Reply: 11%

----------
Give % Maximum Stimulation Compared to Oxotremorine-M for every item shown.
# tested.system: human m4 receptors (Homo sapiens)
# Construct: expressed in transfected cells; host or cells: CHO K1 cells
# protocol.summary: Stimulation of cyclic AMP production in pertussis toxin-treated CHO-m4 cells
# Type: cell-based
# measurement.parameters: forskolin present
Numeric only. Scale: %

Task item: Lab note: need % Maximum Stimulation Compared to Oxotremorine-M for "CN(C)C=Nc1ccc2c(c1)[C@@H](NC(=O)c1cc(C(F)(F)F)cc(C(F)(F)F)c1)[C@H](O)C2" on human m4 receptors (Homo sapiens), anyone have it?
Reply: 100

Task item: Lab note: need % Maximum Stimulation Compared to Oxotremorine-M for "CN(C)C=Nc1ccc2c(c1)[C@@H](NC(=O)c1ccc(C(F)(F)F)cc1)[C@H](O)C2" on human m4 receptors (Homo sapiens), anyone have it?
Reply: 6

Task item: Lab note: need % Maximum Stimulation Compared to Oxotremorine-M for "CN(C)C=Nc1ccc2c(c1)[C@@H](NC(=O)c1cc3ccccc3s1)[C@H](O)C2" on human m4 receptors (Homo sapiens), anyone have it?
Reply: 14

Task item: Lab note: need % Maximum Stimulation Compared to Oxotremorine-M for "CN(C)C=Nc1ccc2c(c1)[C@@H](NC(=O)C1CCCC1)[C@H](O)C2" on human m4 receptors (Homo sapiens), anyone have it?
Reply: 27

Task item: Lab note: need % Maximum Stimulation Compared to Oxotremorine-M for "CCCCOc1ccc(C(=O)N[C@@H]2c3cc(N=CN(C)C)ccc3C[C@H]2O)cc1" on human m4 receptors (Homo sapiens), anyone have it?
Reply: 22

Task item: Lab note: need % Maximum Stimulation Compared to Oxotremorine-M for "CN(C)C=Nc1ccc2c(c1)[C@@H](NC(=O)c1ccccc1)[C@H](O)C2" on human m4 receptors (Homo sapiens), anyone have it?
Reply: 5

Task item: Lab note: need % Maximum Stimulation Compared to Oxotremorine-M for O=C(NC1c2cc(N=CN3CCCC3)ccc2CC1O)c1ccc([N+](=O)[O-])cc1Cl (stereo not drawn) on human m4 receptors (Homo sapiens), anyone have it?
Reply: 69

Task item: Lab note: need % Maximum Stimulation Compared to Oxotremorine-M for "CN(C)C=Nc1ccc2c(c1)[C@@H](NC(=O)c1cc(Cl)cc(Cl)c1)[C@H](O)C2" on human m4 receptors (Homo sapiens), anyone have it?
Reply: 74

Task item: Lab note: need % Maximum Stimulation Compared to Oxotremorine-M for COc1cccc(C(=O)NC2c3cc(N=CN4CCCC4)ccc3CC2O)c1 (stereo not drawn) on human m4 receptors (Homo sapiens), anyone have it?
Reply: 45

Task item: Lab note: need % Maximum Stimulation Compared to Oxotremorine-M for "CCCCc1ccc(C(=O)N[C@@H]2c3cc(N=CN(C)C)ccc3C[C@H]2O)cc1" on human m4 receptors (Homo sapiens), anyone have it?
Reply: 18

Task item: Lab note: need % Maximum Stimulation Compared to Oxotremorine-M for O=C(NC1c2cc(N=CN3CCCC3)ccc2CC1O)c1cccc(F)c1F (stereo not drawn) on human m4 receptors (Homo sapiens), anyone have it?
Reply: 22

Task item: Lab note: need % Maximum Stimulation Compared to Oxotremorine-M for O=C(NC1c2cc(N=CN3CCCC3)ccc2CC1O)c1ccc(F)c(F)c1F (stereo not drawn) on human m4 receptors (Homo sapiens), anyone have it?
Reply: 45

Task item: Lab note: need % Maximum Stimulation Compared to Oxotremorine-M for "O=C(N[C@@H]1c2cc(N=CN3CCCCC3)ccc2C[C@H]1O)c1cc(F)cc(F)c1" on human m4 receptors (Homo sapiens), anyone have it?
Reply: 73

Task item: Lab note: need % Maximum Stimulation Compared to Oxotremorine-M for "CN(C)C=Nc1ccc2c(c1)[C@@H](NC(=O)c1cc(F)c(F)c(F)c1)[C@H](O)C2" on human m4 receptors (Homo sapiens), anyone have it?
Reply: 30

Task item: Lab note: need % Maximum Stimulation Compared to Oxotremorine-M for "O=C(N[C@@H]1c2cc(N=CN3CCCC3)ccc2C[C@H]1O)c1c(Cl)cccc1Cl" on human m4 receptors (Homo sapiens), anyone have it?
Reply: 154

Task item: Lab note: need % Maximum Stimulation Compared to Oxotremorine-M for "CC(=Nc1ccc2c(c1)[C@@H](NC(=O)c1ccc(Cl)c(Cl)c1)[C@H](O)C2)N(C)C" on human m4 receptors (Homo sapiens), anyone have it?
Reply: 130

Task item: Lab note: need % Maximum Stimulation Compared to Oxotremorine-M for O=C(NC1c2cc(N=CN3CCCC3)ccc2CC1O)c1ccccc1C(F)(F)F (stereo not drawn) on human m4 receptors (Homo sapiens), anyone have it?
Reply: 65

Task item: Lab note: need % Maximum Stimulation Compared to Oxotremorine-M for "CN(C)C=Nc1ccc2c(c1)[C@@H](NC(=O)c1cc(F)cc(C(F)(F)F)c1)[C@H](O)C2" on human m4 receptors (Homo sapiens), anyone have it?
Reply: 52

Task item: Lab note: need % Maximum Stimulation Compared to Oxotremorine-M for "CN(C)C=Nc1ccc2c(c1)[C@@H](NC(=O)C(F)(F)F)[C@H](O)C2" on human m4 receptors (Homo sapiens), anyone have it?
Reply: 0

Task item: Lab note: need % Maximum Stimulation Compared to Oxotremorine-M for O=C(NC1c2cc(N=CN3CCCC3)ccc2CC1O)c1ccc2ccccc2c1 (stereo not drawn) on human m4 receptors (Homo sapiens), anyone have it?
Reply: 56

Task item: Lab note: need % Maximum Stimulation Compared to Oxotremorine-M for "O=C(N[C@@H]1c2cc(N=CN3CCCCC3)ccc2C[C@H]1O)c1ccc(Cl)c(Cl)c1" on human m4 receptors (Homo sapiens), anyone have it?
Reply: 214

Task item: Lab note: need % Maximum Stimulation Compared to Oxotremorine-M for "CN(C)C=Nc1ccc2c(c1)[C@@H](NC(=O)c1ccc(Cl)nc1)[C@H](O)C2" on human m4 receptors (Homo sapiens), anyone have it?
Reply: 8

Task item: Lab note: need % Maximum Stimulation Compared to Oxotremorine-M for O=C(NC1c2cc(N=CN3CCCC3)ccc2CC1O)c1cc(Cl)cc(Cl)c1 (stereo not drawn) on human m4 receptors (Homo sapiens), anyone have it?
Reply: 100

Task item: Lab note: need % Maximum Stimulation Compared to Oxotremorine-M for "CN(C)C=Nc1ccc2c(c1)[C@@H](NC(=O)c1cccc3ccccc13)[C@H](O)C2" on human m4 receptors (Homo sapiens), anyone have it?
Reply: 95

Task item: Lab note: need % Maximum Stimulation Compared to Oxotremorine-M for O=C(NC1c2cc(N=CN3CCCC3)ccc2CC1O)c1cccs1 (stereo not drawn) on human m4 receptors (Homo sapiens), anyone have it?
Reply: 23

Task item: Lab note: need % Maximum Stimulation Compared to Oxotremorine-M for O=C(NC1c2cc(N=CN3CCCC3)ccc2CC1O)c1cccc2ccccc12 (stereo not drawn) on human m4 receptors (Homo sapiens), anyone have it?
Reply: 76

Task item: Lab note: need % Maximum Stimulation Compared to Oxotremorine-M for O=C(NC1c2cc(N=CN3CCCC3)ccc2CC1O)c1cc(F)c(F)c(F)c1 (stereo not drawn) on human m4 receptors (Homo sapiens), anyone have it?
Reply: 43

Task item: Lab note: need % Maximum Stimulation Compared to Oxotremorine-M for "CN(C)C=Nc1ccc2c(c1)[C@@H](NC(=O)c1cccc(C#N)c1)[C@H](O)C2" on human m4 receptors (Homo sapiens), anyone have it?
Reply: 39

Where these numbers come from: patent US6395735B2
